Origin of values: patent US20240251788A1

# Test system: summer wheat crop plant (TRZAS; cv. Triso)
# Run description: Reduction in herbicide damage to summer wheat by safener, greenhouse post-emergence application, visual scoring
# Format: in vivo
# Stated conditions: in vivo
Property label: Damage to the plant by the herbicide (in %)
Answer with a number only, understood to be in %.

Look up and state reported Damage to the plant by the herbicide (in %) for "C[C@]1(C(=O)N[C@H]2C=C[C@@H](C(=O)O)C2)CC(c2cc(F)cc(F)c2)=NO1"
60

Look up and state reported Damage to the plant by the herbicide (in %) for "C=C[C@]1(C(=O)N[C@H]2C=C[C@@H](C(=O)OC)C2)CC(c2cc(F)cc(F)c2)=NO1"
60

Look up and state reported Damage to the plant by the herbicide (in %) for C=C[C@]1(C(=O)N[C@H]2CO[C@@H](C(=O)OC)C2)CC(c2cc(F)cc(F)c2)=NO1 (relative stereo)
70

Look up and state reported Damage to the plant by the herbicide (in %) for CC1(C)CON(Cc2ccccc2Cl)C1=O [Compound B5.14, clomazone, reference compound]
40

----------
# System: summer barley crop plant (HORVS: cv. Quench)
# Run description: Reduction in herbicide damage to summer barley by safener, greenhouse post-emergence application, visual scoring
# Assay type: in vivo
# Stated conditions: in vivo
Labelling field: enter YES if recorded Damage to the plant by the herbicide (in %) is less than 60%. Enter NO if it equals or exceeds that cut-off.

Input CC1(C)CON(Cc2ccccc2Cl)C1=O [Compound B5.14, clomazone, reference compound] ; condition: Damage to the plant by the herbicide (in %) strictly below 60%. Does it hold?
YES

Input Nc1c(Cl)c(F)nc(OCC(=O)O)c1Cl [Compound B6.4, fluroxypyr, reference compound] ; condition: Damage to the plant by the herbicide (in %) strictly below 60%. Does it hold?
YES

Input "C[C@]1(C(=O)N[C@H]2C=C[C@@H](C(=O)O)C2)CC(c2cc(F)cc(F)c2)=NO1" ; condition: Damage to the plant by the herbicide (in %) strictly below 60%. Does it hold?
NO

Input COc1nc(C)nc(NC(=O)NS(=O)(=O)c2cc(I)ccc2C(=O)O)n1 [Compound B2.34, iodosulfuron, reference compound] ; condition: Damage to the plant by the herbicide (in %) strictly below 60%. Does it hold?
YES

Input C=C[C@]1(C(=O)N[C@H]2CO[C@@H](C(=O)OC)C2)CC(c2cc(F)cc(F)c2)=NO1 (relative stereo) ; condition: Damage to the plant by the herbicide (in %) strictly below 60%. Does it hold?
NO
